The compounds listed here are annotated with their Percentage inhibition of ligand binding, Adrenergic α2A.
- system tested: human recombinant adrenergic α2A receptor (Homo sapiens, UniProt P08913)
- Construct: expressed in transfected cells; host or cells: insect Sf9 cells
- Sequence (P08913 whole entry): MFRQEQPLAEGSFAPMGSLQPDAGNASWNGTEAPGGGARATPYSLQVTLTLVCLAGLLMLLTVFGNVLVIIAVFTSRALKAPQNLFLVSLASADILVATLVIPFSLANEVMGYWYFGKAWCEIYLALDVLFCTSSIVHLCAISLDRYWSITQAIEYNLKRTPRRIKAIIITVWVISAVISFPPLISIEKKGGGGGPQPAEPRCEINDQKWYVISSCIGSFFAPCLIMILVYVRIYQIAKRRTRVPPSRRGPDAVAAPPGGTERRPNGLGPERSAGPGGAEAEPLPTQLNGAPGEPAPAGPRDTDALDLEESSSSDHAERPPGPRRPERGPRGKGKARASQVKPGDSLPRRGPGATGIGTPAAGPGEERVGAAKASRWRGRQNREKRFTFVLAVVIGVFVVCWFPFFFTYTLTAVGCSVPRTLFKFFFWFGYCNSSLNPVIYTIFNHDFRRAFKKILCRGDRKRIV
- procedure text: Radioligand binding, adrenergic α2A ([3H]MK-912)
- stated conditions: compound at 0.1 μM; [3H]MK-912; repeat assays, each datapoint shown; 0.1 µM
assay endpoint: Percentage inhibition of ligand binding, Adrenergic α2A (%)

• CCC1c2c(c3cc(C)ccc3n2CC(O)c2ccncc2)C2CCN1C2 (single isomer, unassigned) [36a] = 8
• Cc1ccc2c(c1)c1c(n2CC(C)(O)c2cccnc2)CCN(C)C1 (single isomer, unassigned) [5a] = 0
• Cc1cnc2c(c1)c1c(n2CC(C)(O)c2cccnc2)CCN2CCCC12 (single isomer, unassigned) [26c] = 19
• Cc1ccc2c(c1)c1c(n2CC(O)c2ccncc2)CCNC1 (single isomer, unassigned) [39a] = 15
• Cc1ccc2c(c1)c1c(n2CC(C)(O)c2ccccn2)CN(C)CC1 (single isomer, unassigned) [16a] = 9
• Cc1cnc2c(c1)c1c(n2CC(C)(O)c2cccnc2)CCN2CCCC12 (single isomer, unassigned) [26b] = 12
• Cc1ccc2c(c1)c1c(n2CC(O)c2ccncc2)C(C)N2CCC1C2 (single isomer, unassigned) [38b] = −1
• CN1CCc2c(c3cc(C(C)(C)O)ccc3n2CC(O)c2ccncc2)C1 (single isomer, unassigned) [23a] = 4
• Cc1ccc2c(c1)c1c(n2CC(O)c2ccncc2)CCN2CCCCC12 (single isomer, unassigned) [47d] = −3
• Cc1ccc2c(c1)c1c(n2CC(O)c2ccncc2)CCN2CCCCC12 (single isomer, unassigned) [47c] = 4
• Cc1ccc2c(c1)c1c(n2CC(O)c2ccncc2)CC2CCCCN2C1 (racemic) [75d] = 49
• Cc1ccc2c(c1)c1c(n2CC(O)c2ccncc2)CC2CCCCN2C1 (racemic) [75a] = 11
• CCC1c2c(c3cc(C)ccc3n2CC(O)c2ccncc2)C2CCN1C2 (single isomer, unassigned) [36b] = 0
• Cc1cnc2c(c1)c1c(n2CCc2ccc(C)nc2)CCN2CCCC12 (single isomer, unassigned) [74a] = 27
• CN1CCc2c(n(CC(O)c3ccncc3)c3ccc(Cl)cc23)C1 (single isomer, unassigned) [41a] = −9
• CN1CCc2c(c3ccc(C(F)(F)F)cc3n2CC(O)c2cccnc2)C1 (single isomer, unassigned) [40b] = 13

* * *

Documented inhibition at 0.1 µM across a set of compounds
- system tested: human recombinant adrenergic α2B receptor (Homo sapiens)
- Construct: expressed in transfected cells; host or cells: CHO-K1
- procedure text: Radioligand binding, adrenergic α2B ([3H]Rauwolscine)
- stated conditions: read-out: Percentage inhibition of ligand binding, Adrenergic α2B (0.1 μM), compound at 0.1 μM; [3H]Rauwolscine; repeat datapoints each shown
assay endpoint: inhibition at 0.1 µM (%)

* C/C(=C\n1c2c(c3cc(C)ccc31)CCN(C)CC2)c1ccncn1 | 79
* CN1CCc2c(c3c(Cl)cccc3n2CCc2ccccc2)C1 | 80
* C/C(=C\n1c2c(c3cc(C)ccc31)CN(C)CC2)c1cn[nH]c1 | 94
* Cc1ccc2c(c1)c1c(n2C2=C(c3ccncc3)CCC2)CCN(C)C1 | 58
* C/C(=C/n1c2c(c3cc(C)ccc31)CCN(C)CC2)c1ccc(Cl)cc1Cl | 83
* COc1ccc(/C(C)=C/n2c3c(c4cc(C)ccc42)CCN(C)CC3)cc1F | 91
* Cc1ccc2c(c1)c1c(n2C2=C(c3ccc4c(ccn4C)c3)CCC2)CCN(C)C1 | 89
* C/C(=C/n1c2c(c3cc(Cl)ccc31)CCN(C)CC2)c1ccc(Cl)cc1Cl | 42
* Cc1ccc(C#Cn2c3c(c4cc(Cl)ccc42)C2CCC(C3)N2C)cn1 (stereo not drawn) | 105
* C/C(=C\n1c2c(c3cc(C)ccc31)CNCC2)c1ccncc1 | 80
* Cc1ccc2c(c1)c1c(n2CC(C)(O)c2cnccn2)CCN2CCCC12 (single isomer, unassigned) [176a] | 105
* Cc1ccc2c(c1)c1c(n2CC(=O)c2ccc(F)cc2)CCN(C)C1 | 66
* C=C(Cn1c2c(c3cc(Cl)ccc31)CN(C)CC2)c1ccncc1 | 75
* CNC(=O)c1ccc(/C(C)=C/n2c3c(c4cc(C)ccc42)CN(C)CC3)cn1 | 96
* Cc1ccc2c(c1)c1c(n2CC(c2ccncc2)N(C)C)CCN(C)C1 (single isomer, unassigned) [150a] | 100
* COc1ccc(/C(C)=C/n2c3c(c4cc(Cl)ccc42)CCN(C)CC3)cc1F | 83
* FC(F)(F)c1ccc(CCn2c3c(c4cccnc42)CN2CCCC2C3)cn1 (stereo not drawn) | -4
* C=C(n1ccnc1)n1c2c(c3cc(C)ccc31)CN(C)CC2 | 60

* * *

Quick reference: inhibition at 0.03 µM of the listed items.
- system tested: human recombinant adrenergic α2B receptor (Homo sapiens, UniProt P18089)
- Construct: expressed in transfected cells; host or cells: CHO-K1
- Sequence (P18089 whole entry): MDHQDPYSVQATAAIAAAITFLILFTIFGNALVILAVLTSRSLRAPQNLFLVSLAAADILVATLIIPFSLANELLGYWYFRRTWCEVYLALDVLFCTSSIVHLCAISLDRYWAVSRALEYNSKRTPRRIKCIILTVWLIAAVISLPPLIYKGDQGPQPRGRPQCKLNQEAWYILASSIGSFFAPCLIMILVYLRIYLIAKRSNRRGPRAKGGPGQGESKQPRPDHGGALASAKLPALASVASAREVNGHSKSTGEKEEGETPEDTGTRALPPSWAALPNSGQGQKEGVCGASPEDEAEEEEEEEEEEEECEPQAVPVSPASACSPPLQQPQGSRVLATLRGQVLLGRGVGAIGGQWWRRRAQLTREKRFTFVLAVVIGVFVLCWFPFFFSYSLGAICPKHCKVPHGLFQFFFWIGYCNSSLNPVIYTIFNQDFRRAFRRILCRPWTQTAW
- procedure text: Radioligand binding, adrenergic α2B ([3H]Rauwolscine)
- stated conditions: read-out: Percentage inhibition of ligand binding, Adrenergic α2B (0.03 μM), compound at 0.03 μM; [3H]Rauwolscine; repeat datapoints each shown
- Procedure: To evaluate in radioligand binding assays the activity of compounds of the invention, human recombinant adrenergic α2B receptor expressed in Chinese hamster ovary (CHO) K1 cells (Uhlen, S. et al, Eur. J. Pharmacol. 343(1):93, 1998) in a modified Tris-HCl buffer (50 mM Tris-HCl, pH 7.4, 12.5 mM MgCl2, 1 mM EDTA, 0.2% BSA) was used. […] Receptor proteins were filtered and washed, the filters were then counted to determine [3H]Rauwolscine specifically bound. […]
assay endpoint: inhibition at 0.03 µM

- Cc1ccc(CCn2c3c(c4ccccc42)CN(C)CC3)cc1: 70%
- Cc1ccc2c(c1)c1c(n2CC(C)(O)c2cncc(C(=O)O)c2)CCN(C)C1 (centres unmarked): 22%
- Cc1cnc2c(c1)c1c(n2CCc2cccnc2)CCN2CCCC12 (single isomer, unassigned) [134b]: 102%
- C/C(=C\n1c2c(c3cc(C)ccc31)C1CCCN1CC2)c1ccc(C)nc1 (single isomer, unassigned) [193b]: 104%
- Cc1ccc(CCn2c3c(c4c(Cl)ccc(Cl)c42)CCN(C)CC3)cn1: 5%
- Cc1ccc2c(n1)c1c(n2CC(O)c2ccncc2)CCN2CCCC12 (centres unmarked): 47%
- Cc1ccc2c(c1)c1c(n2C2=C(c3ccc(C)s3)CCC2)CCN(C)C1: 88%
- C/C(=C\n1c2c(c3cc(Cl)ccc31)CN(C)CC2)c1ccncc1: 73%
- Cc1ccc2c(c1)c1c(n2CC(C)(O)c2ccc(C)nc2)CN(C)CC1 (single isomer, unassigned) [196a]: 93%
- Cc1ccc2c(c1)c1c(n2CC(C)(O)c2ccc(C)nc2)CCN2CCCC12 (centres unmarked) [II-128a]: 97%
- Cc1ccc2c(c1)c1c(n2CC(CN)c2ccncc2)CCN(C)C1 (centres unmarked): 0%
- Cc1cnc2c(c1)c1c(n2CC(O)c2ccc(C#N)cc2)CCN(C)C1 (centres unmarked): 61%
- Cc1ccc2c(c1)c1c(n2CC(N)c2ccc(C(N)=O)nc2)CCN(C)C1 (centres unmarked): 43%
- Cc1cnc2c(c1)c1c(n2CC(N=[N+]=[N-])c2ccncc2)CCN(C)C1 (centres unmarked): 61%
- Cc1ccc2c(c1)c1c(n2CC(O)c2cnn(C)c2)CCN(C)C1 (centres unmarked) [131a]: 30%
- Cc1ccc2c(c1)c1c(n2C2=C(c3ccncc3)CCC2)CCN(C)C1: 42%
- C/C(=C\n1c2c(c3cc(C)ccc31)CN(C)CC2)c1sccc1C: 96%
- Cc1ccc2c(c1)c1c(n2CC(O)c2ccc(C(N)=O)cc2)CCN(C)C1 (single isomer, unassigned) [139a]: 88%
- Cc1ccc2c(c1)c1c(n2CC(CO)c2ccncc2)CCN(C)C1 (centres unmarked): 8%
- Cc1ccc2c(c1)c1c(n2CC(OC(=O)C(C)(C)C)c2ccncc2)CCN(C)C1 (single isomer, unassigned) [130a]: 100%
- Cc1cnc2c(c1)c1c(n2CC(N)c2ccncc2)CCN(C)C1 (centres unmarked): 6%
- Cc1ccc2c(c1)c1c(n2C2=C(c3ccc4c(ccn4C)c3)CCC2)CCN(C)C1: 84%
- C=C(Cn1c2c(c3cc(C)ccc31)CN(C)CC2)c1cccnc1: 91%
- Cc1cnc2c(c1)c1c(n2CC(N)c2ccc(C#N)cc2)CCNC1 (single isomer, unassigned) [160a]: 43%
- Cc1ccc2c(c1)c1c(n2CC(CC(C)(C)O)c2ccncc2)CCN(C)C1 (centres unmarked): 40%
- Cc1ccc(CCn2c3c(c4c(F)ccc(Cl)c42)CN(C)CC3)cn1: 16%
- Cc1ccc(C(O)Cn2c3c(c4cc(C)ccc42)CN(C)CC3)cc1 (single isomer, unassigned) [183b]: 98%
- Cc1ccc2c(c1)c1c(n2CC(C)(O)c2cccnc2)CNCC1 (centres unmarked) [128b]: 54%
- Cc1ccc2c(c1)c1c(n2CC(C)(N=[N+]=[N-])c2cccnc2)CCN(C)C1 (centres unmarked): 71%
- CN1CCc2c(c3c(Cl)cccc3n2CCc2ccccc2)C1: 48%
- Cc1ccc2c(c1)c1c(n2CC(CCN)c2ccncc2)CCN(C)C1 (centres unmarked): -2%
- C/C(=C\n1c2c(c3cc(C)ccc31)C1CCCN1CC2)c1ccc(F)cc1 (centres unmarked) [194a]: 106%
- Cc1ccc2c(c1)c1c(n2CC(O)c2ccncc2)CCN2CCCC12 (single isomer, unassigned) [129c]: 100%
- Cc1ccc2c(c1)c1c(n2CC(O)c2cccnc2)CCN2CCCC12 (centres unmarked): 103%
- Cc1ccc2c(c1)c1c(n2CC(C)(F)c2cccnc2)CCN(C)C1 (centres unmarked): 73%

// provenance: patent US8791132B2
